- protocol: Cytotoxicity against human SGC7901 cells after 48 hrs by MTT assay
- Format: functional, cell-based
- assay setup: SGC-7901, 48 h

[
  {
    "smiles str": "CC(C)=CCC/C(C)=C/CC/C(C)=C/CSc1ccccc1C(=O)NCCOCCNC(=O)c1ccccc1SC/C=C(\\C)CC/C=C(\\C)CCC=C(C)C",
    "IC50": "43.8 µM"
  },
  {
    "smiles str": "CC(C)=CCC/C(C)=C/CC/C(C)=C/CSc1ccccc1C(=O)NCCCCNC(=O)c1ccccc1SC/C=C(\\C)CC/C=C(\\C)CCC=C(C)C",
    "IC50": "> 50 µM"
  },
  {
    "smiles str": "CC(C)=CCC/C(C)=C/CC/C(C)=C/CSc1ccccc1C(=O)NCCCN",
    "IC50": "12.8 µM"
  },
  {
    "smiles str": "CC(C)=CCC/C(C)=C/CC/C(C)=C/CSc1ccccc1C(=O)NCCN",
    "IC50": "33.8 µM"
  },
  {
    "smiles str": "CC(C)=CCC/C(C)=C/CC/C(C)=C/CSc1ccccc1C(=O)N1CCNCC1",
    "IC50": "25.7 µM"
  },
  {
    "smiles str": "CC(C)=CCC/C(C)=C/CC/C(C)=C/CSc1ccccc1C(=O)NCCOCCN",
    "IC50": "7.63 µM"
  },
  {
    "smiles str": "CC(C)=CCC/C(C)=C/CC/C(C)=C/CSc1ccccc1C(=O)NCCCCCCNC(=O)c1ccccc1SC/C=C(\\C)CC/C=C(\\C)CCC=C(C)C",
    "IC50": "> 50 µM"
  },
  {
    "smiles str": "CC(C)=CCC/C(C)=C/CC/C(C)=C/CSc1ccccc1C(=O)N1CCN(C(=O)c2ccccc2SC/C=C(\\C)CC/C=C(\\C)CCC=C(C)C)CC1",
    "IC50": "> 50 µM"
  }
]
